FYI, the data here is from paper PMC7826789.

Assign Percent Control to each entry below.
- System: FLT1;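 further: KINOMEscan scanMAX binding as percent activity remaining versus control; lower means stronger binding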
- statedConditions: Compound Concentration (nM):1000
Write your answer as a measured quantity: the number, then the unit.

Qu. Reported Percent Control for Nc1ncnc2occ(-c3ccc(NC(=O)Nc4cc(C(F)(F)F)ccc4F)cc3)c12 [GW770249X] : what is it?
Ans. 2.9%

Qu. Reported Percent Control for COc1cc2ncn(-c3cc(O[C@H](C)c4ccccc4Cl)c(C(N)=O)s3)c2cc1OC [GSK237701A] : what is it?
Ans. 69%

Qu. Reported Percent Control for O=C1Nc2ccc(C(=O)c3ccco3)cc2C1=Cc1cc(Cl)c(O)c(Cl)c1 [GW406108X] : what is it?
Ans. 57%

Qu. Reported Percent Control for NS(=O)(=O)c1ccc(N/N=C2\C(=O)Nc3ccc(C(=O)NCCc4c[nH]cn4)cc32)cc1 [GW300660X] : what is it?
Ans. 100%

Qu. Reported Percent Control for COc1cc(N2CCN(C(C)C)CC2)ccc1Nc1nc(Nc2ccc(F)cc2C(=O)NC[C@@H](O)CO)c2cc[nH]c2n1 [GSK1392956A] : what is it?
Ans. 94%

Qu. Reported Percent Control for CC(C)COC(=O)c1ccc2c(c1)/C(=C/Nc1ccc(S(N)(=O)=O)cc1)C(=O)N2 [GW416981X] : what is it?
Ans. 83%

Qu. Reported Percent Control for COc1cc2ncnc(Nc3ccc4c(cnn4Cc4ccccc4)c3)c2cc1OC.Cl [GW282449A] : what is it?
Ans. 100%

Qu. Reported Percent Control for Cc1cc(O)cc(C)c1/C=C/c1cncc(C(N)=O)c1 [GW435821X] : what is it?
Ans. 100%

Qu. Reported Percent Control for NS(=O)(=O)c1ccc(N/N=C2\C(=O)Nc3ccc(Cl)cc32)cc1 [GW280670X] : what is it?
Ans. 100%

Qu. Reported Percent Control for COc1ccc2[nH]c3c4[nH]c5ccc(OC)cc5c4c4c(c3c2c1)C(=O)NC4=O [GW296115X] : what is it?
Ans. 79%

Qu. Reported Percent Control for CC1=C(C(=O)Nc2ccc3[nH]ncc3c2)C(c2ccc(Cl)c(Cl)c2)CC(=O)N1 (stereo not drawn) [GSK299115A] : what is it?
Ans. 100%

Qu. Reported Percent Control for CCn1c(-c2nonc2N)nc2c(C#CC(C)(C)O)nc(OCCNC)cc21.Cl : what is it?
Ans. 100%

Qu. Reported Percent Control for CCS(=O)(=O)c1ccc(OC)c(Nc2ncc(-c3cccc(OC)c3)o2)c1 [GW580509X] : what is it?
Ans. 54%

Qu. Reported Percent Control for CN1CCN(C(=O)c2ccc(NC(=O)Nc3ccc(N(C)c4ccnc(Nc5ccc(CS(C)(=O)=O)cc5)n4)cc3)cc2)CC1.Cl [GW830263A] : what is it?
Ans. 0.4%

Qu. Reported Percent Control for COC(=O)Nc1nc2ccc(Oc3ccc(NC(=O)Nc4cc(C(F)(F)F)ccc4F)cc3)cc2s1.Cl [GW693917A] : what is it?
Ans. 3%

Qu. Reported Percent Control for CN(C)CCNC(=O)Nc1ccc(N(C)c2ccnc(Nc3ccc(CS(C)(=O)=O)cc3)n2)cc1.Cl [GW830900A] : what is it?
Ans. 61%

Qu. Reported Percent Control for COc1ccc2cc(-c3c(-c4ccncc4)nc(-c4ccc(S(C)(=O)=O)cc4C)n3C)ccc2c1 : what is it?
Ans. 100%

Qu. Reported Percent Control for COc1ccc2c(-c3ccnc(Nc4cccc(OC(F)(F)F)c4)n3)cnn2n1 [GW810372X] : what is it?
Ans. 73%

Qu. Reported Percent Control for C[C@@H](Oc1cc(-n2cnc3ccc(OC4CCN(C)CC4)cc32)sc1C(N)=O)c1ccccc1Cl [GSK579289A] : what is it?
Ans. 75%

Qu. Reported Percent Control for CCS(=O)(=O)c1ccc(OC)c(Nc2ncc(-c3cccc(F)c3)o2)c1 [GW621970X] : what is it?
Ans. 45%

Qu. Reported Percent Control for NS(=O)(=O)c1ccc(Nc2ncc(-c3ccccc3)o2)cc1 [GW572399X] : what is it?
Ans. 100%
